# System: IKK-alpha
# Construct: gene CHUK
# measurement_parameters: Compound Concentration (nM):1000;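 note: KINOMEscan scanMAX binding as percent activity remaining versus control; lower means stronger binding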
assay_endpoint: Percent Control (%)
State just the number; it will be interpreted in %.

>>> print(df.to_string())
                                   compound  readout_units  reading
0  NS(=O)(=O)c1ccc(Nc2ncc(-c3ccccc3)o2)cc1 [GW572399X]              %       90
1  COc1ccc2[nH]c3c4[nH]c5ccc(OC)cc5c4c4c(c3c2c1)C(=O)NC4=O [GW296115X]              %       89

Param item = CN(C)c1cc2c(Nc3ccc4c(cnn4Cc4ccccc4)c3)ncnc2cn1 [GW282974X] ; retrieve measured Percent Control.
92

---

# Tested on: FLT3-autoinhibited
# measurement_parameters: Compound Concentration (nM):1000
// reported Percent Control per item
Give just the numeric value; % need not be written.

For the compound CN(C)c1cc2c(Nc3ccc4c(cnn4Cc4ccccc4)c3)ncnc2cn1 [GW282974X] , what Percent Control is on record?
93

Try this compound too: CC1=C(C(=O)Nc2ccc3[nH]ncc3c2)C(c2ccc(Cl)c(Cl)c2)CC(=O)N1 (stereo not drawn) [GSK299115A]
100

Next compound: NS(=O)(=O)c1ccc(N/N=C2\C(=O)Nc3ccc(C(=O)NCc4ccncc4)cc32)cc1 [GW300657X]
74

Quick one: CCS(=O)(=O)c1ccc(OC)c(Nc2ncc(-c3cccc(F)c3)o2)c1 [GW621970X]
7.9

Okay, and COc1cc(C)c(N(C)C(=O)CN(C)C)cc1Nc1nc(Nc2cccc(F)c2C(N)=O)c2cc[nH]c2n1 ?
100

Please answer likewise for CC(C)COC(=O)c1ccc2c(c1)/C(=C/Nc1ccc(S(N)(=O)=O)cc1)C(=O)N2 [GW416981X]
45

---

# Test system: CDK4
# measurement_parameters: Compound Concentration (nM):1000
assay_endpoint: Percent Control

>>> df
                                   compound  reading
0  COc1ccc(COc2ccc(Cc3cnc(N)nc3N)cc2OC)cc1 [GW632580X]      94%
1  CC(C)COC(=O)c1ccc2c(c1)/C(=C/Nc1ccc(S(N)(=O)=O)cc1)C(=O)N2 [GW416981X]      91%
2  COc1cc(/C=N/Nc2ncnc3[nH]ncc23)ccc1O [GW578748X]      92%

Fill blank: measured Percent Control of the compound NS(=O)(=O)c1ccc(N/N=C2\C(=O)Nc3ccc(C(=O)NCCc4c[nH]cn4)cc32)cc1 [GW300660X] is ____.
100%

Next: CN(C)CCNC(=O)Nc1ccc(N(C)c2ccnc(Nc3ccc(CS(C)(=O)=O)cc3)n2)cc1.Cl [GW830900A]
97%

NS(=O)(=O)c1ccc(N/N=C2\C(=O)Nc3ccc(C(=O)NCc4ccncc4)cc32)cc1 [GW300657X] ?
84%

Repeat with NS(=O)(=O)c1ccc(N/N=C2\C(=O)Nc3ccc(Cl)cc32)cc1 [GW280670X]
100%

Now give it for NS(=O)(=O)c1ccc(Nc2ncc(-c3ccccc3)o2)cc1 [GW572399X] too.
95%

---

# System: KIT(L576P)
# measurement_parameters: Compound Concentration (nM):1000
assay_endpoint: Percent Control (%)
Expressed in %, but write only the number.

Past entries and their recorded results:
>>> df
                                   compound  reading
0  COc1cc(/C=N/Nc2ncnc3[nH]ncc23)ccc1O [GW578748X]       51
1  COc1cc(C)c(N(C)C(=O)CN(C)C)cc1Nc1nc(Nc2cccc(F)c2C(N)=O)c2cc[nH]c2n1      100

Now look at this one.
Name the recorded Percent Control for Cl.O=C(Nc1ccc(Oc2ccc3[nH]c(NC(=O)c4ccco4)nc3c2)cc1)Nc1cc(C(F)(F)F)ccc1F [GW683134A] .
0

---

Percent Control values by entry
# Test system: PIK3CA(E545K)
# measurement_parameters: Compound Concentration (nM):1000
Report only the number, with the unit % understood.

Some compounds with known Percent Control results, for comparison:
>>> print(df.to_string())
                                   compound  readout_units  reading
0  O=C(Nc1n[nH]c2nc(-c3ccc(O)cc3)c(Br)cc12)C1CC1 [SB-725317]              %      100
1  COc1cc(/C=N/Nc2ncnc3[nH]ncc23)ccc1O [GW578748X]              %       59

What value of measured Percent Control is listed for NS(=O)(=O)c1ccc(N/N=C2\C(=O)Nc3ccc(C(=O)NCc4ccncc4)cc32)cc1 [GW300657X] ?
75

Now the same for Cl.c1ccc(Cc2nc3ccc(Nc4ncnc5ccccc45)cc3[nH]2)cc1 [GR269666A]
99

---

# Test system: RPS6KA4(Kin.Dom.2-C-terminal)
# measurement_parameters: Compound Concentration (nM):1000
Note to self: use true (1) only for Percent Control readings below 90%; a reading exactly at 90% still gets false (0).

Reference set (10 entries):
>>> df
                                   compound  assigned_class
0  O=C(Nc1n[nH]c2nc(-c3ccc(O)cc3)c(Br)cc12)C1CC1        true (1)
1  Cl.O=S1CCN(Cc2ccc(-c3ccc4ncnc(Nc5ccc(OCc6ccccc6)c(F)c5)c4c3)o2)CC1 [GW576924A]       false (0)
2  Cl.c1ccc(Cc2nc3ccc(Nc4ncnc5ccccc45)cc3[nH]2)cc1 [GR269666A]       false (0)
3  C/C(Nc1ccc(S(N)(=O)=O)cc1)=C1/C(=O)Nc2ccccc21 [GW335962X]        true (1)
4  CCS(=O)(=O)c1ccc(OC)c(Nc2ncc(-c3cccc(F)c3)o2)c1 [GW621970X]       false (0)
5  COc1ccccc1-c1cc(/C=C2\C(=O)Nc3ncc(Br)cc32)cc(Br)c1O [GW442130X]        true (1)
6  CC(C)COC(=O)c1ccc2c(c1)/C(=C/Nc1ccc(S(N)(=O)=O)cc1)C(=O)N2 [GW416981X]        true (1)
7  C[C@@H](Oc1cc(-n2cnc3ccc(OC4CCN(C)CC4)cc32)sc1C(N)=O)c1ccccc1Cl [GSK579289A]        true (1)
8  CCn1c(-c2nonc2N)nc2c(C#CC(C)(C)O)nc(OCCNC)cc21.Cl        true (1)
9  CCc1ccc(Oc2nccc(-c3c(-c4ccc(F)cc4)ncn3C3CCNCC3)n2)cc1        true (1)

Continue with the next compound.
Hello, is Percent Control of the following compound strictly smaller than 90%? NS(=O)(=O)c1ccc(N/N=C2\C(=O)Nc3ccc(-c4cnco4)cc32)cc1
false (0)

---

# Test system: FGR
# measurement_parameters: Compound Concentration (nM):1000
assay_endpoint: Percent Control (%)
Output spec: scalar in %, unitless text.

Look over these answered cases.
>>> df
                                   molecule  reading
0  CN(C)c1cc2c(Nc3ccc4c(cnn4Cc4ccccc4)c3)ncnc2cn1 [GW282974X]       73
1  CN(C)CCNC(=O)Nc1ccc(N(C)c2ccnc(Nc3ccc(CS(C)(=O)=O)cc3)n2)cc1.Cl [GW830900A]      100
2  Nc1ncnc2occ(-c3ccc(NC(=O)Nc4cc(C(F)(F)F)ccc4F)cc3)c12 [GW770249X]      100
3  NS(=O)(=O)c1ccc(N/N=C2\C(=O)Nc3ccc(-c4cnco4)cc32)cc1       79
4  COc1cc2ncnc(Nc3ccc4c(cnn4Cc4ccccc4)c3)c2cc1OC.Cl [GW282449A]       68
5  CCS(=O)(=O)c1ccc(OC)c(Nc2ncc(-c3cccc(OC)c3)o2)c1 [GW580509X]       41
6  NS(=O)(=O)c1ccc(N/N=C2\C(=O)Nc3ccc(C(=O)NCc4ccncc4)cc32)cc1 [GW300657X]      100
7  Cl.c1ccc(Cc2nc3ccc(Nc4ncnc5ccccc45)cc3[nH]2)cc1 [GR269666A]      100

Item COc1ccc(COc2ccc(Cc3cnc(N)nc3N)cc2OC)cc1 [GW632580X] with FGR - Percent Control?
81

And then COc1ccccc1-c1cc(/C=C2\C(=O)Nc3ncc(Br)cc32)cc(Br)c1O [GW442130X] , what is it?
100

Request: COc1ccc2c(-c3ccnc(Nc4cccc(OC(F)(F)F)c4)n3)cnn2n1 [GW810372X]
96

---

# Test system: MST4
# measurement_parameters: Compound Concentration (nM):1000
Reported Percent Control values for a set of compounds

# example entries with known answers
                                   compound   assay_endpoint  reading
0  COc1cccc(-c2c[nH]c3c(N/N=C/c4ccncc4)ncnc23)c1 [GW814408X]  Percent Control      21%
1  C/C(Nc1ccc(S(N)(=O)=O)cc1)=C1/C(=O)Nc2ccccc21 [GW335962X]  Percent Control     8.4%
2  CC1=C(C(=O)Nc2ccc3[nH]ncc3c2)C(c2ccc(Cl)c(Cl)c2)CC(=O)N1 (stereo not shown) [GSK299115A]  Percent Control      66%
3  NS(=O)(=O)c1ccc(N/N=C2\C(=O)Nc3ccc(Cl)cc32)cc1 [GW280670X]  Percent Control      63%
4  NS(=O)(=O)c1ccc(N/N=C2\C(=O)Nc3ccc(C(=O)NCCc4c[nH]cn4)cc32)cc1 [GW300660X]  Percent Control      25%
5  Cl.c1ccc(Cc2nc3ccc(Nc4ncnc5ccccc45)cc3[nH]2)cc1 [GR269666A]  Percent Control     100%

Now for a further compound.
Looking for the measured Percent Control of COc1ccc2cc(-c3c(-c4ccncc4)nc(-c4ccc(S(C)(=O)=O)cc4C)n3C)ccc2c1 , can you help?
82%

Sourced from paper PMC7826789
